Entries annotated with measured binding signal
TGT: MYC (p64);MAX (p21), in MYC:MAX (human;human, UniProt P01106-1;P61244-2 1-439;1-151, |)
Sequence (P01106 16-454, chain 1 of 2): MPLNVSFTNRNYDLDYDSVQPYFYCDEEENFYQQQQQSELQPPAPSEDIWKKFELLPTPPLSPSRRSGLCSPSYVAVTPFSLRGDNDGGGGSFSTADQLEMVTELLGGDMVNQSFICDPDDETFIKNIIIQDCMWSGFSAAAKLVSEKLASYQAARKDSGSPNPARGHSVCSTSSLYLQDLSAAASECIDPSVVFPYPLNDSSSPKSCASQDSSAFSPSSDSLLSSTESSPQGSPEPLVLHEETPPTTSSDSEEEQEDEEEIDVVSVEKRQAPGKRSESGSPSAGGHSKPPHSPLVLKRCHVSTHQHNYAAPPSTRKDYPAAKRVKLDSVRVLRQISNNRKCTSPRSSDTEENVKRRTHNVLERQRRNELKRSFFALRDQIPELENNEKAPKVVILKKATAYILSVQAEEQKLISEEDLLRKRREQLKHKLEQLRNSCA
Sequence (P61244 other isoform, or with tags, fused parts or gaps |, chain 2 of 2): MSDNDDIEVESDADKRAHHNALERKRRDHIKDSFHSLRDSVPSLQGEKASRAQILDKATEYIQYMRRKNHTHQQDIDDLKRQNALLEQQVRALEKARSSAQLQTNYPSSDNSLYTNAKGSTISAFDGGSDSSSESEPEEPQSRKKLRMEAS
PROCEDURE SUMMARY: protein-binding microarray (anti-MAX antibody); PBM: 15 mM Tris-HCl pH 7.5, 100 mM KCl, 0.075% NP40, 7.5 mM beta-mercaptoethanol, 375 ng/ul BSA, 8 ng/ul poly(dA-dT):(dA-dT), 550 ng complex, 60 min, room tempe; high values mean tight binding
EXPERIMENTAL CONTEXT: protein: recombinant;recombinant; tags: 6xHis;6xHis; copies: 1;1; label: 3' end of printed strand (linker) attached to glass slide; dsDNA, one strand shown
The full ranking holds about 5,000 sequences; the median of “log2 normalized fluorescence” is about 0.089, and the highest 2% start at about 0.81. What follows is part of a selection rich in the highest values, with near analogues and random picks from the rest.

Previously resolved entries follow.
1. CCGGCACCCACGTGGTATTAATAGCTAAGATTACTATATCGACG 0.845 log2 normalized fluorescence
2. CCGGCTGAGTGACAGTATTAATAGCTAAGATTACTATATCGACG 0.00932 log2 normalized fluorescence
3. CCGGCAGAGACGTGGTATTAATAGCTAAGATTACTATATCGACG 0.387 log2 normalized fluorescence
4. CCGGCTGACTCCAAGTATTAATAGCTAAGATTACTATATCGACG 0.0835 log2 normalized fluorescence

What measured binding signal goes with CCGGCTGATGAGGTGTATTAATAGCTAAGATTACTATATCGACG ?
-0.000883 log2 normalized fluorescence

What measured binding signal goes with CCGGCTGAATCAATGTATTAATAGCTAAGATTACTATATCGACG ?
0.252 log2 normalized fluorescence

What measured binding signal goes with CCGGCTGAAATGCCGTATTAATAGCTAAGATTACTATATCGACG ?
0.0989 log2 normalized fluorescence

What measured binding signal goes with CCGGCTGACACGAGGTATTAATAGCTAAGATTACTATATCGACG ?
0.625 log2 normalized fluorescence

What measured binding signal goes with CCGGCACGCACGTGGTATTAATAGCTAAGATTACTATATCGACG ?
0.838 log2 normalized fluorescence

What measured binding signal goes with CCGGCTGATCGGCGGTATTAATAGCTAAGATTACTATATCGACG ?
0.0519 log2 normalized fluorescence

What measured binding signal goes with CCGGCACACACGTGGTATTAATAGCTAAGATTACTATATCGACG ?
0.804 log2 normalized fluorescence

###

TGT: MYC (p64);MAX (p21), in MYC:MAX (human;human, UniProt P01106-1;P61244-2 1-439;1-151, |)
PROCEDURE SUMMARY: protein-binding microarray (anti-MAX antibody); PBM: 15 mM Tris-HCl pH 7.5, 100 mM KCl, 0.075% NP40, 7.5 mM beta-mercaptoethanol, 375 ng/ul BSA, 8 ng/ul poly(dA-dT):(dA-dT), 550 ng complex, 60 min, room tempe; high values mean tight binding
EXPERIMENTAL CONTEXT: protein: recombinant;recombinant; tags: 6xHis;6xHis; copies: 1;1; label: 3' end of printed strand (linker) attached to glass slide; dsDNA, one strand shown
Whole data set: some 5,000 sequences, median “log2 normalized fluorescence” near 0.089, cut for the highest 2% near 0.81. This is one part of a sample in which the highest values are shown more often than they occur.
Entries annotated with measured binding signal

Previously resolved entries follow.
1. CCGGCTGAGGCGAAGTATTAATAGCTAAGATTACTATATCGACG 0.0114 log2 normalized fluorescence
2. CCGGCTGACACGTGGTATTAATAGCTAAGATTACTATATCGACG 0.825 log2 normalized fluorescence
3. CCGGCTGAGGACGAGTATTAATAGCTAAGATTACTATATCGACG -0.00251 log2 normalized fluorescence
4. CCGGCCGACACGTGATATTAATAGCTAAGATTACTATATCGACG 0.927 log2 normalized fluorescence
5. CCGGCTGACAGTCGGTATTAATAGCTAAGATTACTATATCGACG 0.0326 log2 normalized fluorescence

What measured binding signal goes with CCGGCTGATCCGCTGTATTAATAGCTAAGATTACTATATCGACG ?
-0.0182 log2 normalized fluorescence

What measured binding signal goes with CCGGCTTACACGTGTTATTAATAGCTAAGATTACTATATCGACG ?
1.05 log2 normalized fluorescence

What measured binding signal goes with CCGGCTGAGCGCAGGTATTAATAGCTAAGATTACTATATCGACG ?
0.113 log2 normalized fluorescence

What measured binding signal goes with CCGGCTGACCTTGAGTATTAATAGCTAAGATTACTATATCGACG ?
0.204 log2 normalized fluorescence

What measured binding signal goes with CCGGCTTACAAGTGTTATTAATAGCTAAGATTACTATATCGACG ?
0.479 log2 normalized fluorescence

What measured binding signal goes with CCGGCTGGAACGTGGTATTAATAGCTAAGATTACTATATCGACG ?
0.66 log2 normalized fluorescence

What measured binding signal goes with CCGGCTGAGGTAATGTATTAATAGCTAAGATTACTATATCGACG ?
0.138 log2 normalized fluorescence

What measured binding signal goes with CCGGCCGACACGTGGGCTTAATAGCTAAGATTACTATATCGACG ?
0.893 log2 normalized fluorescence

What measured binding signal goes with CCGGCGCACACGTGCTATTAATAGCTAAGATTACTATATCGACG ?
0.875 log2 normalized fluorescence

What measured binding signal goes with CCGGCTGATCATTTGTATTAATAGCTAAGATTACTATATCGACG ?
0.247 log2 normalized fluorescence

What measured binding signal goes with CCGGCTGAAGGACCGTATTAATAGCTAAGATTACTATATCGACG ?
0.0673 log2 normalized fluorescence

What measured binding signal goes with CCGGCTGAAAGCATGTATTAATAGCTAAGATTACTATATCGACG ?
0.491 log2 normalized fluorescence

What measured binding signal goes with CCGGCTGAACGGACGTATTAATAGCTAAGATTACTATATCGACG ?
0.0519 log2 normalized fluorescence

What measured binding signal goes with CCGGCTGAACCGCGGTATTAATAGCTAAGATTACTATATCGACG ?
0.103 log2 normalized fluorescence

###

TGT: MYC (p64);MAX (p21), in MYC:MAX (human;human, UniProt P01106-1;P61244-2 1-439;1-151, |)
PROCEDURE SUMMARY: protein-binding microarray (anti-MAX antibody); PBM: 15 mM Tris-HCl pH 7.5, 100 mM KCl, 0.075% NP40, 7.5 mM beta-mercaptoethanol, 375 ng/ul BSA, 8 ng/ul poly(dA-dT):(dA-dT), 550 ng complex, 60 min, room tempe; high values mean tight binding
EXPERIMENTAL CONTEXT: protein: recombinant;recombinant; tags: 6xHis;6xHis; copies: 1;1; label: 3' end of printed strand (linker) attached to glass slide; dsDNA, one strand shown
The full ranking holds about 5,000 sequences; the median of “log2 normalized fluorescence” is about 0.089, and the highest 2% start at about 0.81. Shown is part of a subset that was picked to be rich in the highest values.
READOUT: binding signal

1) CCGGCTGATCCCGCGTATTAATAGCTAAGATTACTATATCGACG 0.218 log2 normalized fluorescence
2) CCGGCTGACACGTGGTTTTAATAGCTAAGATTACTATATCGACG 0.795 log2 normalized fluorescence
3) CCGGCTGATGAGCAGTATTAATAGCTAAGATTACTATATCGACG -0.0208 log2 normalized fluorescence
4) CCGGCTGACACGTGTAGTTAATAGCTAAGATTACTATATCGACG 0.834 log2 normalized fluorescence
5) CCGGCTGAAAAGAGGTATTAATAGCTAAGATTACTATATCGACG -0.00138 log2 normalized fluorescence
6) CCGGCTGAACAAGGGTATTAATAGCTAAGATTACTATATCGACG 0.093 log2 normalized fluorescence
7) CCGGCTGAGAACACGTATTAATAGCTAAGATTACTATATCGACG 0.318 log2 normalized fluorescence
8) CCGGCTGGCACCTGGCATTAATAGCTAAGATTACTATATCGACG 0.319 log2 normalized fluorescence
9) CCGGCTGAATCTTGGTATTAATAGCTAAGATTACTATATCGACG -0.0321 log2 normalized fluorescence
10) CCGGCTGACACGCATTATTAATAGCTAAGATTACTATATCGACG 0.524 log2 normalized fluorescence

Please examine the following record next.
What measured binding signal goes with CCGGCTGACACGTAGTGTTAATAGCTAAGATTACTATATCGACG ?
0.396 log2 normalized fluorescence

###

TGT: MYC (p64);MAX (p21), in MYC:MAX (human;human, UniProt P01106-1;P61244-2 1-439;1-151, |)
PROCEDURE SUMMARY: protein-binding microarray (anti-MAX antibody); PBM: 15 mM Tris-HCl pH 7.5, 100 mM KCl, 0.075% NP40, 7.5 mM beta-mercaptoethanol, 375 ng/ul BSA, 8 ng/ul poly(dA-dT):(dA-dT), 550 ng complex, 60 min, room tempe; high values mean tight binding
EXPERIMENTAL CONTEXT: protein: recombinant;recombinant; tags: 6xHis;6xHis; copies: 1;1; label: 3' end of printed strand (linker) attached to glass slide; dsDNA, one strand shown
The full ranking holds about 5,000 sequences; the median of “log2 normalized fluorescence” is about 0.089, and the highest 2% start at about 0.81. The sample as a whole holds a higher share of the highest values than the screen did.
Entries annotated with measured binding signal

Previously resolved entries follow.
1) CCGGCTGACGACAGGTATTAATAGCTAAGATTACTATATCGACG 0.106 log2 normalized fluorescence
2) CCGGCTGATGGTCCGTATTAATAGCTAAGATTACTATATCGACG 0.278 log2 normalized fluorescence
3) CCGGCTGAAACACAGTATTAATAGCTAAGATTACTATATCGACG 0.249 log2 normalized fluorescence
4) CCGGCCGACACGGCGTATTAATAGCTAAGATTACTATATCGACG 0.161 log2 normalized fluorescence
5) CCGGCAGACACGTGTTATTAATAGCTAAGATTACTATATCGACG 0.993 log2 normalized fluorescence

What measured binding signal goes with CCGGCCGACACGTGTTATTAATAGCTAAGATTACTATATCGACG ?
0.999 log2 normalized fluorescence

What measured binding signal goes with CCGGCTGGCACGTGGCATTAATAGCTAAGATTACTATATCGACG ?
0.721 log2 normalized fluorescence

What measured binding signal goes with CCGGCAGACACGTGATCTTAATAGCTAAGATTACTATATCGACG ?
0.751 log2 normalized fluorescence

What measured binding signal goes with CCGGCTGATCGCTTGTATTAATAGCTAAGATTACTATATCGACG ?
-0.00084 log2 normalized fluorescence

What measured binding signal goes with CCGGCTGGCACGTGGTGTTAATAGCTAAGATTACTATATCGACG ?
0.954 log2 normalized fluorescence

What measured binding signal goes with CCGGCTGACTCGTGCTGTTAATAGCTAAGATTACTATATCGACG ?
0.41 log2 normalized fluorescence
